# assayed target: IDO1 (Homo sapiens)
# Sequence (P14902 whole entry): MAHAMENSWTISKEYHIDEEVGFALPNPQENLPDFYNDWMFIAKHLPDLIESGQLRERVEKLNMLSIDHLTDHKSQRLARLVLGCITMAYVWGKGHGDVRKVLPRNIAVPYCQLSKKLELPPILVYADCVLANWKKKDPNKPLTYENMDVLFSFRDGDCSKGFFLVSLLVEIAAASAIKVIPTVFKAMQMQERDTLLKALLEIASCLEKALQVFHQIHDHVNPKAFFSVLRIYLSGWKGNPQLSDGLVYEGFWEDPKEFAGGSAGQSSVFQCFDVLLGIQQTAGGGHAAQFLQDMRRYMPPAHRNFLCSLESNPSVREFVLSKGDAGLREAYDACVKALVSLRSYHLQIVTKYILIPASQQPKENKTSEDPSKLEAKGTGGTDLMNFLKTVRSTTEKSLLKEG
# run description: IDO1 Cellular Assay in Hela Cells Stimulated with IFNγ
# Format: cell-based
# measurement parameters: IFNγ 100 ng/mL, 300 uM L-tryptophan, about 48 hours, fluorescence readout, read-out: IDO1 HELA Cell Assay, IC50
pIC50: −log10 of the molar value.
measured quantity: pIC50

- compound: "CC(C(=O)Nc1ccc(F)cc1)C12CC(NC(=O)c3cc4ccccc4cn3)(C1)C2 (stereo not drawn) [Example 144]"
  limit sign: "="
  measured number: 6.33
- compound: "C[C@@H](C(=O)Nc1ccc(F)cc1)C12CC(NC(=O)OC(C)(C)C)(C1)C2 (single isomer, unassigned) [Example 31]"
  limit sign: "<"
  measured number: 5.00
- compound: "C[C@H](C(=O)Nc1ccc(F)cc1)C12CC(NC(=O)Nc3cccc4ccccc34)(C1)C2 [Example 86]"
  limit sign: "="
  measured number: 7.07
- compound: "Cc1noc(C(=O)NC23CC(C4(NC(=O)c5ccc(F)cc5)CC4)(C2)C3)n1 [Example 28]"
  limit sign: "="
  measured number: 7.14
- compound: "Cc1ccc(C(=O)NC23CC([C@@H](C)C(=O)Nc4ccc(F)cc4)(C2)C3)cc1Cl [Example 44]"
  limit sign: "="
  measured number: 8.64
- compound: "C[C@H](C(=O)Nc1ccc(F)cc1)C12CC(NC(=O)Nc3cccc(C(F)(F)F)c3)(C1)C2 [Example 87]"
  limit sign: "="
  measured number: 7.04
- compound: "Cc1c(Cl)cccc1C(=O)NC12CC([C@H](C)C(=O)Nc3ccc(F)cc3)(C1)C2 [Example 53]"
  limit sign: "="
  measured number: 6.91
- compound: "C[C@H](C(=O)Nc1ccc(F)cc1)C12CC(NC(=O)c3ccc(Cl)c(Cl)n3)(C1)C2 [Example 149]"
  limit sign: "="
  measured number: 7.57
- compound: "C[C@@H](C(=O)Nc1ccc(F)cc1)C12CC(NC(=O)c3cccc(C(F)(F)F)c3)(C1)C2 [Example 42]"
  limit sign: "="
  measured number: 8.30
- compound: "CC(C(=O)Nc1ccc(Cl)cc1)C12CC(NC(=O)c3cccc(Cl)c3)(C1)C2 (single isomer, unassigned) [Example 7]"
  limit sign: "="
  measured number: 8.98
- compound: "C[C@H](C(=O)Nc1ccc(F)cc1)C12CC(NC(=O)c3ccc(F)c(Cl)c3)(C1)C2 [Example 48]"
  limit sign: "="
  measured number: 8.77
- compound: "CC(C(=O)Nc1ccc(F)cc1)C12CC(NC(=O)c3ccc(Cl)c(Cl)c3)(C1)C2 (single isomer, unassigned) [Example 9]"
  limit sign: "="
  measured number: 8.81
- compound: "Cc1cc(C(=O)NC23CC([C@@H](C)C(=O)Nc4ccc(F)cc4)(C2)C3)ccc1F [Example 46]"
  limit sign: "="
  measured number: 8.67
- compound: "C[C@H](C(=O)Nc1ccc(F)cc1)C12CC(NC(=O)c3cc(Cl)ccc3F)(C1)C2 [Example 56]"
  limit sign: "="
  measured number: 8.60
- compound: "CC(C(=O)Nc1ccc(F)cc1)C12CC(NC(=O)c3cc(Cl)ccn3)(C1)C2 (stereo not drawn) [Example 112]"
  limit sign: "="
  measured number: 7.39

---

# pIC50 values compiled below
# assayed target: UniProtKB P14902
# run description: IDO1 Cellular Assay in Hela Cells Stimulated with IFNγ
# Format: cell-based
# measurement parameters: IFNγ 100 ng/mL, 300 uM L-tryptophan, about 48 hours, fluorescence readout, read-out: IDO1 HELA Cell Assay, IC50
pIC50: −log10 of the molar value.

- molecule: "Cc1ccc(C(=O)NC23CC(C(C)C(=O)Nc4ccc(F)cc4)(C2)C3)cn1 (stereo not shown) [Example 132]"
  pIC50: 6.60
- molecule: "CC(C(=O)Nc1ccc(Cl)cc1)C12CC(NC(=O)c3cccc(C#N)c3)(C1)C2 (single isomer, unassigned) [Example 12]"
  pIC50: 7.01
- molecule: "C[C@H](C(=O)Nc1ccc(F)cc1)C12CC(NC(=O)Nc3ccc(F)c(Cl)c3)(C1)C2 [Example 83]"
  pIC50: 7.41
- molecule: "CC(C(=O)Nc1ccc(F)nc1)C12CC(NC(=O)c3ccc(Cl)c(Cl)c3)(C1)C2 (single isomer, unassigned) [Example 14]"
  pIC50: 8.21

Values were extracted from patent US11478461B2.
